test: gradient 5% acetonitrile 3 min, to 50% in 2 min, to 85% in 15 min, held 3 min, 100 µL/min; conditions: column: Zorbax Extend-C18 2.1 x 50 mm; eluents: water / acetonitrile, 0.1% formic acid
Quantity: RP-LC retention time (s)

INSERT INTO measurements (compound, quantity, measured_number) VALUES
  ('Cc1ccccc1N1C(=O)CN(S(C)(=O)=O)CC1(C)C(=O)NCc1ccc(Cl)cc1 (centres undefined)', 'RP-LC retention time', 778),
  ('CCCCNC(=O)Cn1c(=O)c2cnc(-c3ccccc3)nc2n(CC)c1=O', 'RP-LC retention time', 937),
  ('Cc1sc2ccn(C)c(=O)c2c1C(=O)NCc1ccc(OC(C)C)cc1', 'RP-LC retention time', 833),
  ('Cc1ccc(-c2nnc(-c3ccccc3Cl)o2)cc1S(=O)(=O)N1CCCC1', 'RP-LC retention time', 1090);

###

assay: gradient 5% acetonitrile 3 min, to 50% in 2 min, to 85% in 15 min, held 3 min, 100 µL/min; conditions: column: Zorbax Extend-C18 2.1 x 50 mm; eluents: water / acetonitrile, 0.1% formic acid
Quantity: RP-LC retention time (s)

Examples with their reported RP-LC retention time follow.
INSERT INTO assay_data (molecule, measured_number) VALUES
  ('Cc1noc(-c2cc(=O)n(CC(=O)Nc3ccccc3Cl)c3ccccc23)n1', 900),
  ('O=C(Nc1ccc(F)c(Cl)c1)c1nc2ncccn2n1', 729),
  ('N#Cc1cccc(N2C=C(C(=O)N3CCCC3)S(=O)(=O)c3ccccc32)c1', 720),
  ('COc1ncc(C(=O)NCc2ccc(F)c(Cl)c2)cn1', 756),
  ('Cc1ccc(CNS(=O)(=O)c2ccc3c(c2)C(=O)N(C)c2ncccc2O3)cc1', 932),
  ('CC(C)CCNC(=O)C1(C)Cn2nc(C(=O)NCc3ccc(F)cc3)cc2C(=O)N1C (stereo not drawn)', 727);

1: COc1ccc(C2CC(=O)N(Cc3ccccc3)C(=O)C2)cc1OC
2: COc1ccc(OC)c(Nc2nc(NCCO)c3cnn(C)c3n2)c1
Between 1 and 2 , whose measured RP-LC retention time reads higher? Pick one and reply with its label.
1

A: Cc1nnc(-c2ccc3c(c2)OCO3)o1
B: Cc1cc(Cl)cc2sc(N(Cc3ccccn3)C(=O)CN(C)S(C)(=O)=O)nc12
Hi! Which is lower in terms of RP-LC retention time, the first one A or the second one B ? Pick one and reply with its label.
A

A: O=C(NCc1nc(-c2ccc(Oc3ccc(Cl)cc3)cc2)no1)c1ccco1
B: O=S(=O)(Nc1cccc(-c2cn3ccccc3n2)c1)c1ccc(Br)cc1
Between A and B , whose measured RP-LC retention time reads higher? Pick one and reply with its label.
A
(A: 987 s, B: 673 s)

###

experiment: gradient 5% acetonitrile 3 min, to 50% in 2 min, to 85% in 15 min, held 3 min, 100 µL/min; conditions: column: Zorbax Extend-C18 2.1 x 50 mm; eluents: water / acetonitrile, 0.1% formic acid
Quantity: RP-LC retention time (s)

INSERT INTO results (molecule, unit_name, measured_number) VALUES
  ('Cc1ccc(NC(=O)C2CCN(S(=O)(=O)c3ccc4c(c3)sc(=O)n4C)CC2)cc1Cl', 's', 978),
  ('CCc1nc(N)n(CC(=O)Nc2cccc(C)c2C)c(=O)c1C', 's', 638),
  ('COc1cccc(NC(=O)CN2CCc3c(c(=O)c4cc(C)ccc4n3C)C2)c1', 's', 609),
  ('CCOC(=O)c1cnc2nc(C)ccc2c1Nc1ccc(F)cc1F', 's', 716),
  ('CCCS(=O)(=O)N1CC(=O)N(c2cc(Cl)ccc2C)C(C)(C(=O)NC2CCCCC2)C1 (stereo unspecified)', 's', 982),
  ('COc1ccc(-n2ccc(=O)c(-c3nc(-c4cccc(OC)c4OC)no3)n2)cc1', 's', 824),
  ('COc1ccc(C(C)NC(=O)c2sc3ncccc3c2-n2cccc2)cc1OC (stereo unspecified)', 's', 929),
  ('O=C(CCNc1c(-c2ccccc2)nc2cnccn12)NCC1CCCO1 (stereo unspecified)', 's', 576),
  ('CCCOc1nccnc1NC1CCN(C(=O)c2ccco2)CC1', 's', 748),
  ('O=C(C1CC=CC1)N1CCC2(CC1)NCCc1c2[nH]c2ccccc12', 's', 643),
  ('COc1ccc(-c2c(C(=O)NCc3cccs3)nc3ccccn23)cc1', 's', 828),
  ('O=C(Nc1ccc(F)cc1)N1CCCCCC1', 's', 738),
  ('Cn1c(=O)n(C2CCN(C(=O)Cc3ccccc3)CC2)c2ncncc21', 's', 655),
  ('COc1ccc(OC)c(NC(=O)C2CC(=O)N(CCc3c[nH]c4ccc(Cl)cc34)C2)c1 (stereo unspecified)', 's', 849),
  ('O=C(NCC(O)C1CCCCC1)c1ccsc1 (stereo unspecified)', 's', 689),
  ('O=C(c1ccco1)N1CCN(c2nc(-c3ccc(Cl)cc3)nc3ccccc23)CC1', 's', 747);

Hello, the source for this data is the METLIN SMRT retention time set (Domingo-Almenara et al. 2019), in case you need it.
